B1: TPR t1 (parent)
chain: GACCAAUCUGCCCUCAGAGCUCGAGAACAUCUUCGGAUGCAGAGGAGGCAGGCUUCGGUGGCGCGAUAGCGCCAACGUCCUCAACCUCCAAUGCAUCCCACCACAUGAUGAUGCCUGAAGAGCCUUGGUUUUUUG

Variants of: B1
Test: polymerase ribozyme fitness, log enrichment relative to wild type (log ratio); higher = more active; in vitro selection for triplet polymerase activity
observable: polymerase ribozyme fitness (log ratio)
Answers are plain numbers.

Take a look at these entries with their results.
mutation="C15A C56A" measured_result=-0.645
mutation="G51A C101U G117A" measured_result=-4.58
mutation="C40U A41C C56A C114A" measured_result=-2.89
mutation="U7C C13A C28G G69U A100U" measured_result=-2.4
mutation="G35U C73G" measured_result=-5.75
mutation="C8G A27G C64U C72U G93U C104A A111U U125C" measured_result=-3.56

For every listed record, write down its polymerase ribozyme fitness (log ratio).
1. C86G A100U G128C
2. C15U C73U C94A A111C
3. C99U C124A
4. C53G C62U C72A C124U
5. A18C U32C A46U A90U C114U
6. G39A U78C
7. A29C C56G C73A A119G

-3.41
-2.53
-1.1
0.806
-3.04
-1.06
-3.16
